Reference source for all entries: ChEMBL document CHEMBL1154649

# test-description: Half life in Sprague-Dawley rat at 2 mg/kg, iv
# Type: ADME, organism-based
# Parameters: dose 2 mg/kg, route intravenous
# condition: in vivo
property-measured: half-life (h)
State just the number; it will be interpreted in h.

Ask: Tell me half-life reported for CC(=O)O[C@@H](C[C@@H](C)C1=C2C[C@H](OC(C)=O)[C@H]3[C@@]4(C)CCC(=O)C(C)(C)[C@@H]4CC[C@]3(C)[C@@]2(C)CC1)[C@@H](OC(C)=O)C(C)(C)OC(C)=O
Result: 1.63

====

# Tested on: Rattus norvegicus
# test-description: AUC in Sprague-Dawley rat at 10 mg/kg, ig
# Type: ADME, organism-based, Plasma
# Set-up: dose 10 mg/kg, route intragastric
# condition: in vivo, po
property-measured: AUC (ng·h/mL)
State just the number; it will be interpreted in ng·h/mL.

Ask: Tell me AUC reported for CC(=O)O[C@@H](C[C@@H](C)C1=C2C[C@H](OC(C)=O)[C@H]3[C@@]4(C)CCC(=O)C(C)(C)[C@@H]4CC[C@]3(C)[C@@]2(C)CC1)[C@@H](OC(C)=O)C(C)(C)OC(C)=O
Result: 1040
